The reader will find reported activity change, negative = inhibition values listed item by item below.
Test: qHTS Assay for Lipid Storage Modulators (AID 1519); also: % is scaled to controls: 0 for no effect and ±100 for the full control effect
Settings: Drosophila S3 cells, BODIPY lipid droplet/cell ratio, laser cytometry; at 57.5 µM (top of the series); cells loaded with oleic acid
Experimental: NIH Molecular Libraries Probe Production Centers Network [MLPCN] NIH Chemical Genomics Center [NCGC] Assay Submitter (PI): Beller, Mathias; Max-Planck-Institut fur Biophysikalische Chemie […] We dispensed 4 uL of cells at 1.25 x 10^6 cells/mL into LoBase Aurora COC 1,536-well plates (black walled, clear bottom) with a bottle-valve solenoid-based dispenser (Aurora) to obtain 5,000 cells/well. […] The ratio of the total intensity in PMT channel 1 over total intensity of channel 3 was also calculated. […]
Results filed as inconclusive are left out.
Report as a plain number; the unit % is understood.

Answered examples (2):
# compound, activity change, negative = inhibition / %
data = [
    ("C#CCN(C)C(C)Cc1ccccc1 (stereo not drawn)", 2.75),
    ("CC(C)(C)[C@]1(O)C[C@@H]2OC(=O)C[C@@]23C(=O)O[C@@H]2OC(=O)[C@H](O)[C@]213", 3.73),
]

We next turn to a different compound, shown below.
### Prompt Given CC(=O)OC1CC(OC(C)=O)[C@]2(C)C(CC(OC(C)=O)[C@]3(C)C2CC[C@@]2(C)C(c4ccoc4)C[C@H]4O[C@]432)C1(C)C (stereo partly drawn) , respond with its activity change, negative = inhibition.
### Response 6.91

###

Target: Voltage-gated inwardly rectifying potassium channel KCNH2 (Homo sapiens) (UniProt Q12809)
Sequence (Q12809 whole entry, looked up): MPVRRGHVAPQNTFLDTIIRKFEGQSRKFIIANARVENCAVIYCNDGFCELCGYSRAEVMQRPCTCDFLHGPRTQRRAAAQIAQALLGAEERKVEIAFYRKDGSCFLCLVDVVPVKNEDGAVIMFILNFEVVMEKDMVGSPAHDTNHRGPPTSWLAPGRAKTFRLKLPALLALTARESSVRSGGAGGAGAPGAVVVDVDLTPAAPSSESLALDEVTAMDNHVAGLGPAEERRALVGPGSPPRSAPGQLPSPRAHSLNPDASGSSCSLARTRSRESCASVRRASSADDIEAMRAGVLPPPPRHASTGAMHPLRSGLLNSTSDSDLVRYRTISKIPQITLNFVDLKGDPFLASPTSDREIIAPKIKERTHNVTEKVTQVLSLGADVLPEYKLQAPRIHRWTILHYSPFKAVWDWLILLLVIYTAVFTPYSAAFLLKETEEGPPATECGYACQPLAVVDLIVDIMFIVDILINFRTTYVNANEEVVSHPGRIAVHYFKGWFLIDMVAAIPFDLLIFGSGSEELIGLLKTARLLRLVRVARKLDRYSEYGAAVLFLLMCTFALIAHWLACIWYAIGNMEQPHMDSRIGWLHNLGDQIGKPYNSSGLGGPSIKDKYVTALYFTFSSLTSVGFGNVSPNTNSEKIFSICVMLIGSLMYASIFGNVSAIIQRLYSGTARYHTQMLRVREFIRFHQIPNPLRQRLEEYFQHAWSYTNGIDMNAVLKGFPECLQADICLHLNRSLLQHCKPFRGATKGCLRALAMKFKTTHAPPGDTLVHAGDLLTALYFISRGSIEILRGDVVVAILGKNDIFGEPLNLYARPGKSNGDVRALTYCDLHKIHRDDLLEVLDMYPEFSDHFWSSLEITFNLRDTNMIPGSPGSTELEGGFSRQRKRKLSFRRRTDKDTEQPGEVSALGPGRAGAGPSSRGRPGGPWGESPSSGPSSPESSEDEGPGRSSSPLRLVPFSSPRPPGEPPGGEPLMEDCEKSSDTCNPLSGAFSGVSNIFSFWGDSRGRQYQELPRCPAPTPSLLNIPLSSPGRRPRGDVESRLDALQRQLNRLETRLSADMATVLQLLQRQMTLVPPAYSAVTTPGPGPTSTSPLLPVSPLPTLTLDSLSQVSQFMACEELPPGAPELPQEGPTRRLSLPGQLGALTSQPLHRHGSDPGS
Experiment: qHTS Assay for Small Molecule Inhibitors of the Human hERG Channel Activity (AID 588834);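 also: lower thallium flux fluorescence means stronger hERG block; nearly all actives have a fitted effect of over 50% in size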
Details: U2OS BacMam hERG, FluxOR thallium flux fluorescence; series mostly up to 92.2 µM
Records with an inconclusive call do not appear. Active and inactive are the calls of the source. Calls follow the shape of the dose curve; as a rule, active = well fitted inhibition curve with a large enough effect; inconclusive = small, poorly fitted or top-dose-only effect; inactive = flat fitted curve, though single readings scatter.
Classes to choose from: 1 (active), -1 (inactive)

The examples below pair each entry with its known result.
# compound, qualitativeLabel
measured = [
    ("Nc1c(Cl)c(Cl)nc(C(=O)O)c1Cl", -1),
    ("CCNc1nc(Cl)nc(NC(C)C)n1", -1),
    ("CCC[CH2][Sn]([Cl])([Cl])[Cl]", -1),
    ("CCSC(=O)Cl", -1),
]

### Prompt Entry CCCN1CCc2cc(O)cc3c2C1Cc1ccc(O)c(O)c1-3 (stereo unspecified) : call = ?
### Response 1

### Prompt Outcome? `Oc1ccc(Cl)cc1Cl`
### Response -1

### Prompt # outcome recorded in this test, key = `Clc1ccc2ccccc2c1`
### Response -1

### Prompt Hi, sorry to bother you, what did the test record for ClC1=C(Cl)C2(Cl)C3C4CC(C5OC45)C3C1(Cl)C2(Cl)Cl (stereo unspecified) ?
### Response 1

### Prompt // param item: `Brc1ccccc1` ; yields the recorded call
### Response -1

### Prompt What did this assay record as the result for CN1C[C@H](C(=O)N[C@]2(C)O[C@@]3(O)C4CCCN4C(=O)[C@H](Cc4ccccc4)N3C2=O)C[C@@H]2c3cccc4[nH]cc(c34)C[C@H]21 (stereo partly specified) ?
### Response 1

###

Each entry below carries its recorded Z-AUC.
Assay: qHTS drug screen for cell cycle checkpoint inhibitors in PARPi-resistant BRCA-mutant ovarian cancer cell lines. (AID 1963452)
Details: PEO1/OlaR viability, CellTiter-Glo luminescence, 96 h; measured here: PEO4 Z-AUC; stronger effect = lower value
// return just the number, without any unit appended

# molecule, measuredMetric, observedResult
measured = [
    ("COc1cc2cc(c1Cl)N(C)C(=O)C[C@H](OC(=O)C(C)C)[C@]1(C)O[C@@H]1[C@H](C)[C@@H]1C[C@@](O)(NC(=O)O1)[C@H](OC)/C=C/C=C(\\C)C2", "Z-AUC", -2.84),
    ("Cn1c(COP(=O)(NCCBr)NCCBr)cnc1[N+](=O)[O-]", "Z-AUC", 1.09),
    ("COC(=O)[C@@]12OC[C@]34[C@H]([C@@H](O)[C@@H]1O)[C@@]1(C)CC(=O)C(O)=C(C)[C@@H]1C[C@H]3OC(=O)[C@H](OC(=O)/C=C(\\C)C(C)C)[C@@H]24", "Z-AUC", -2.64),
]

### Prompt // Input: `C[C@@]12OC(=O)[C@]1([C@@H](O)[C@@H]1C=CCCC1)NC(=O)[C@@H]2CCCl` . Output its Z-AUC only.
### Response -1.64

### Prompt Provide measured Z-AUC value, entry: CN1[C@@H]2CC(O)C[C@H]1[C@@H]1O[C@@H]12 (stereo partly drawn)
### Response 1.01

### Prompt Provide one value: measured Z-AUC of `C[C@]12COC(=O)C[C@@H]1CC[C@@H]1[C@@H]2CC[C@@]2(C)[C@H]1CC[C@]2(C)O`
### Response 0.327

### Prompt Look up and state reported Z-AUC for CCCCCCC(C)(C)c1cc(O)c2c(c1)OC(C)(C)C1CC=C(CO)C[C@H]21 (stereo partly drawn)
### Response 0.644

### Prompt Dear colleague, please send me the reported Z-AUC for C[C@@H](C1CC[C@@]2(O)C3=CC(=O)[C@@H]4C[C@@H](O)[C@@H](O)C[C@]4(C)[C@H]3CC[C@]12C)[C@H](O)CCC(C)(C)O (stereo partly drawn) when you can.
### Response 1.02

### Prompt Consider the molecule `CC(=O)O[C@@]12CO[C@@H]1C[C@H](O)[C@@]1(C)C(=O)[C@H](O)C3=C(C)[C@@H](O)C[C@@](O)([C@@H](OC(=O)c4ccccc4)[C@H]21)C3(C)C` and give its recorded Z-AUC.
### Response 0.492

###

Target: Estrogen receptor (Homo sapiens)
Experiment: qHTS assay for small molecule agonists of estrogen receptor alpha signaling (AID 588514);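 also: 0% = vehicle only and 100% = reference agonist; nearly all actives have a fitted effect of over 70% in size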
Conditions: ER-alpha-UAS-bla HEK293, beta-lactamase ratio, 18 h; series mostly up to 76.8 µM
Results filed as inconclusive are left out. Active and inactive are the calls of the source. Calls come from the whole dose curve.
measuredMetric: outcome

# compound, measuredMetric, observedResult
measured = [
    ("C=C(C)C(=O)OCC1CO1 (stereo not drawn)", "outcome", "inactive"),
    ("CC(C)N1C(=O)c2ccccc2NS1(=O)=O", "outcome", "inactive"),
    ("COP(=S)(OC)Oc1ccc([N+](=O)[O-])cc1", "outcome", "inactive"),
]

###

Biological target: Rap guanine nucleotide exchange factor 3 (Homo sapiens) (UniProt O95398)
Sequence (O95398 whole entry, looked up): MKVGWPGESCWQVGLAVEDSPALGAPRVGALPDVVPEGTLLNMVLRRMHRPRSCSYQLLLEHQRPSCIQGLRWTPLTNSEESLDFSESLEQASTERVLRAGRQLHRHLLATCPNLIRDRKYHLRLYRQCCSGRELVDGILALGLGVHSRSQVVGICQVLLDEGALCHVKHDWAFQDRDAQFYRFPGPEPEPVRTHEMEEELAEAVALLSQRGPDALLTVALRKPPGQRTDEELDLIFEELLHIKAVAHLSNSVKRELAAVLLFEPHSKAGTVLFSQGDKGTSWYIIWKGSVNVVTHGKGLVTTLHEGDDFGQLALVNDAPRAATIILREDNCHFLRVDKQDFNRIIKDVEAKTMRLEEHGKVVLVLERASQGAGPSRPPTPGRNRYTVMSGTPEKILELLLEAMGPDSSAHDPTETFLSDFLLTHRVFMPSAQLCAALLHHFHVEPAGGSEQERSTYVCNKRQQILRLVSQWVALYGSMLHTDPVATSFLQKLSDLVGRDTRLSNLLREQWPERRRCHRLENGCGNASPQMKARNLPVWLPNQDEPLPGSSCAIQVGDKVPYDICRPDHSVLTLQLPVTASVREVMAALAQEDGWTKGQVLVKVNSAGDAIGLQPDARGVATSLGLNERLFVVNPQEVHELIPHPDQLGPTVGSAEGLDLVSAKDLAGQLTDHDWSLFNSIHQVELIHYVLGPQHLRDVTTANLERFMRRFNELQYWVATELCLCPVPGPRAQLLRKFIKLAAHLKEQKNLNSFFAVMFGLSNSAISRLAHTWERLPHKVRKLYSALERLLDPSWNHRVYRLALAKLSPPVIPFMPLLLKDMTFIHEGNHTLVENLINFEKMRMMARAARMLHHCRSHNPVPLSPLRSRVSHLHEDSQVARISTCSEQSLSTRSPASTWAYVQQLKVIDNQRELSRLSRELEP
Assay: Counterscreen qHTS for antagonist of cAMP-regulated guanine nucleotide exchange factor 3 (EPAC1) (AID 1645888);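 also: fluorescence loss as bound BODIPY-GDP is released from Rap1B; % of control where 0% means no effect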
Conditions: Rap1B-BODIPY-GDP nucleotide exchange, fluorescence; series mostly up to 154 µM
Records with an inconclusive call do not appear. Active and inactive are the calls of the source. Calls come from the whole dose curve; as a rule, active = well fitted inhibition curve with a large enough effect; inconclusive = small, poorly fitted or top-dose-only effect; inactive = no such curve, though single readings can be large or run the other way.
measuredMetric: activity change, negative = inhibition

Sample answers from the record:
# compound, activity change, negative = inhibition
data = [
    ("Nc1ccc(Cl)cc1C(=O)c1ccccc1Cl", "-0.237% [at 30.8 µM] (inactive)"),
    ("O=C(O)CC1OCC=C2CN3CCC45C6=CC(=O)C(=O)C([N+](=O)[O-])=C6NC4C1C2CC35 (centres undefined)", "inactive"),
    ("CCOC(=O)c1[nH]c2ccc(OC)cc2c1C(SCC(=O)O)c1ccc(C(F)(F)F)cc1 (centres undefined)", "-0.779% [at 30.8 µM] (inactive)"),
    ("COC(=O)c1cn(C(=O)c2cccc3ccccc23)c2ccccc12", "inactive"),
    ("COc1ccc(OC)c(N2C(=O)NC(=O)/C(=C/c3ccc([N+](=O)[O-])s3)C2=O)c1", "10.9% [at 30.8 µM] (inactive)"),
    ("CCCCNC(=O)c1c(N)n(CCCOC)c2nc3ccccc3nc12", "inactive"),
]

### Prompt Fill: activity change, negative = inhibition (Rap guanine nucleotide exchange factor 3 (Homo sapiens) (UniProt O95398)) for this compound COc1ccc(C(SCC(NC(=O)OCc2ccccc2)C(=O)O)c2ccc(OC)cc2)cc1 (centres undefined)
### Response inactive

### Prompt State activity change, negative = inhibition (Rap guanine nucleotide exchange factor 3 (Homo sapiens) (UniProt O95398)) of OC1/C(=C/c2ccc(C(F)(F)F)cc2)N2CCC1CC2 (centres undefined) .
### Response inactive

### Prompt Give reported activity change, negative = inhibition for `Cc1c(NS(=O)(=O)c2ccccc2)ccc([N+](=O)[O-])c1Cl` (Rap guanine nucleotide exchange factor 3 (Homo sapiens) (UniProt O95398))
### Response inactive

### Prompt Provide measured activity change, negative = inhibition on Rap guanine nucleotide exchange factor 3 (Homo sapiens) (UniProt O95398) for `COc1ccc(N2C(=O)NC(=O)/C(=C/c3ccc([N+](=O)[O-])s3)C2=O)cc1` please.
### Response inactive

### Prompt Tell me its activity change, negative = inhibition on Rap guanine nucleotide exchange factor 3 (Homo sapiens) (UniProt O95398): `Cc1ccc(-n2c(O)c(/C=C/C=Nc3ccccc3)c(=O)[nH]c2=O)cc1`
### Response inactive

### Prompt Give activity change, negative = inhibition for this entry on Rap guanine nucleotide exchange factor 3 (Homo sapiens) (UniProt O95398): `CCOC(=O)[C@]12Cc3cc(Cl)ccc3[C@H]1N(Cc1ccccc1)C(=O)c1ccccc12`
### Response inactive

### Prompt Provide the reported activity change, negative = inhibition (system: Rap guanine nucleotide exchange factor 3 (Homo sapiens) (UniProt O95398)) for `Cn1cccc1/C=C1/C(=O)NC(=S)N(Cc2ccc(F)cc2)C1=O`
### Response -2.5% [at 30.8 µM] (inactive)

### Prompt # return activity change, negative = inhibition of `Cc1cccc(CN2C(=O)CN=C(c3ccccc3)c3cc(Cl)ccc32)c1` (system: Rap guanine nucleotide exchange factor 3 (Homo sapiens) (UniProt O95398))
### Response inactive
